# TARGET OR SYSTEM: Protein smoothened (Homo sapiens) (UniProt Q99835)
# Sequence (Q99835 whole entry): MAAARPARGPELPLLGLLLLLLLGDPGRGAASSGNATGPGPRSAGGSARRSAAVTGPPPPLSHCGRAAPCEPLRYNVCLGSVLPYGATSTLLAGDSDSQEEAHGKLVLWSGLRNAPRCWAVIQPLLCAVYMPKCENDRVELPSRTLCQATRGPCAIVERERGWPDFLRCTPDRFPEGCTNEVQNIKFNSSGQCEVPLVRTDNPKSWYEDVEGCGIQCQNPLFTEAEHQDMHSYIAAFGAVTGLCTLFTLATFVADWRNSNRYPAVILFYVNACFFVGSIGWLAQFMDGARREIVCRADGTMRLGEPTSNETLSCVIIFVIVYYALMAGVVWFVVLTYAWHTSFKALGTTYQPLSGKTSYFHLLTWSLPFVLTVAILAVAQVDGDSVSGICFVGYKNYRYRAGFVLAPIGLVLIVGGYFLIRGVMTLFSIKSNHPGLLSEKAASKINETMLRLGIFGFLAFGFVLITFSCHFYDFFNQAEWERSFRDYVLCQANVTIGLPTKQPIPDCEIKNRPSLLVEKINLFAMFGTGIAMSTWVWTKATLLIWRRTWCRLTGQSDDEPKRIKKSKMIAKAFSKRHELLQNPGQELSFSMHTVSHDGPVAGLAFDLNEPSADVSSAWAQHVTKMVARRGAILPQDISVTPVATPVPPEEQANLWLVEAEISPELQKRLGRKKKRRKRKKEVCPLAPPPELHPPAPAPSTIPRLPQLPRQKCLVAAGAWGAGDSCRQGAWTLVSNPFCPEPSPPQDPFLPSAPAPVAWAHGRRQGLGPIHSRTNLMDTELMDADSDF
# ASSAY COMMENT: Binding affinity to recombinant human Flag-6 x His-tagged Smo expressed in human HEK293T cells assessed as reduction in BODIPY-Cyclopamine binding by measuring fluorescence intensity at 30 uM incubated for 2 to 4 hrs by fluorescence microscopic competitive binding analysis relative to control
# Assay type: cell-based
# Set-up: scale not given: the % may be the effect or the level left
# TEST PARAMETERS: time 2-4 hrs
ASSAY METRIC: Activity (%)

Solved entries:
Task item: What does the data say about its Activity? Entry: C[C@@H]1CCN=C([C@H](C)[C@H]2CC[C@H]3[C@@H]4CC=C5C[C@@H](O)CC[C@]5(C)[C@H]4CC[C@]23C)C1=O
Reply: 54.5

Task item: What does the data say about its Activity? Entry: C[C@H]1CC[C@@H]2N(C1)C[C@H]1[C@@H]3C[C@H]4[C@@H](CC=C5C[C@@H](O)CC[C@@]54C)[C@@H]3C[C@H](O)[C@@H]1[C@]2(C)O
Reply: 42.8

I: CC[C@H](C)C(=O)O[C@H]1[C@H](O)[C@H]2[C@@H](CN3C[C@@H](C)CC[C@H]3[C@@]2(C)O)[C@@H]2C[C@@]34O[C@]5(O)[C@@H]([C@@H](O)[C@@H](O)[C@H]3[C@@]21O)[C@]4(C)CC[C@@H]5O
II: C[C@H]1CCC([C@@H](C)[C@H]2CC[C@H]3[C@@H]4CC=C5C[C@@H](O)CC[C@]5(C)[C@H]4CC[C@]23C)=NC1 [VERAZINE]
Task item: In terms of reported Activity, does I or II have the smaller number? Record your answer as the label of the chosen record.
Reply: II
(II: 47.1%, I: 69.4%)
